assay: Antiviral activity against Influenza A virus A/WSN/33 (H1N1) infected in MDCK cells assessed as inhibition of virus-induced cell death after 36 hrs by CellTiter-Glo luminescent cell viability assay; assay type: functional, cell-based, Influenza A virus (A/WSN/1933(H1N1))
outcome_measure: pIC50
Answer as the number alone; pIC50 is minus log10 of concentration in mol/L.

compound=C[C@@H]1O[C@@H](O[C@H]2[C@H](O[C@H]3[C@H](O[C@H]4CC[C@]5(C)[C@H]6C(=O)C=C7[C@@H]8C[C@@](C)(C(=O)O)[C@H](O)C[C@]8(C)CC[C@@]7(C)[C@]6(C)CC[C@H]5C4(C)C)O[C@H](C(=O)O)[C@@H](O)[C@@H]3O)O[C@H](CO)[C@@H](O)[C@@H]2O)[C@H](O)[C@H](O)[C@H]1O observed_measurement=4.37

Supply pIC50 value. Item: `CC(=O)O[C@@H]1C[C@](C)(C(=O)O)C[C@H]2C3=CC(=O)[C@@H]4[C@@]5(C)CC[C@H](O[C@H]6O[C@H](C(=O)O)[C@@H](O)[C@H](O)[C@H]6O[C@@H]6O[C@H](C(=O)O)[C@@H](O)[C@H](O)[C@H]6O)C(C)(C)[C@@H]5CC[C@@]4(C)[C@]3(C)CC[C@@]12C`
4.31

Supply pIC50 value. Item: CCOC(=O)C1=C[C@@H](OC(CC)CC)[C@H](NC(C)=O)[C@@H](N)C1 [OSELTAMIVIR PHOSPHATE]
4.34

Supply pIC50 value. Item: `C[C@@H]1O[C@@H](O[C@@H]2CC(C)(C)C[C@H]3C4=CC(=O)[C@@H]5[C@@]6(C)CC[C@H](O[C@@H]7O[C@H](C(=O)O)[C@@H](O)[C@H](O)[C@H]7O[C@@H]7O[C@H](C(=O)O)[C@@H](O)[C@H](O)[C@H]7O)C(C)(C)[C@@H]6CC[C@@]5(C)[C@]4(C)CC[C@@]23C)[C@H](O)[C@H](O)[C@H]1O`
4.40
